These measurements were taken from PubChem BioAssay.

# measurement_description: compounds altering Cy5-DNA-NS3h complex signal – biochemical, LOPAC1280, artefact control for HCV NS3 helicase inhibitor project (AID 687037)
# test_settings: Cy5-DNA-NS3h complex fluorescence interference counterscreen
Overview of reported fluorescence ratio (interference) across a group of compounds:
Keep the answer to the number alone.

compound	fluorescence ratio (interference)
COc1cc(OC)c(/C=C2/C(=O)Nc3ccccc32)c(OC)c1	1
O=C(CCCCCN1CCN(c2ccccc2-c2ccccc2)CC1)NC1CCCc2ccccc21 (centres undefined)	1
CN1CC(O)C(O)C(O)C1CO (centres undefined)	1
CNc1ncnc2c1ncn2[C@H]1C[C@H](OP(=O)(O)O)[C@@H](COP(=O)(O)O)O1	1
N#CC(=C(\N)Sc1ccccc1N)/C(C#N)=C(/N)Sc1ccccc1N	1

Incoming: Could you share which fluorescence ratio (interference) value was measured for O=C1NCc2c1c1c3ccccc3[nH]c1c1[nH]c3ccccc3c21 ?
Outgoing: 1

Incoming: Cool, now CC(N)=O
Outgoing: 0.9

---

# measurement_description: MELAS cybrid and Rieske KO viability enhancers – cell-based, MELAS cybrids, Rieske KO mouse fibroblasts, CellTiter-Glo, primary screen (AID 1508586);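 also: z relative to plate mean and SD of compound and empty wells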
# test_settings: Rieske KO mouse fibroblast survival, low glucose, CellTiter-Glo 72 h
Recorded z-score split into classes c1 = under -0.3, c2 = from -0.3 up to 0.1, c3 = 0.1 and over

Worked examples, 2 molecules total:
molecule	assigned_category
CCc1ccc(C=C2SC(=S)NC2=O)cc1	c3
O=C(NCc1cccc(O)c1)Nc1nc(-c2ccncc2)cs1	c1

Incoming: Entry NCC1OC(OC2C(CO)OC(OC3C(O)C(N)CC(N)C3OC3OC(CO)C(O)C(O)C3N)C2O)C(N)C(O)C1O (centres undefined) belongs to which category?
Outgoing: c1

Incoming: Cool, now O=C(OC1CC2CC3C[C@@H](C1)N2CC3=O)c1c[nH]c2ccccc12 (some centres undefined)
Outgoing: c1

Incoming: Cool, now Cn1ccnc1CN1C[C@@H](CN2CCOCC2)C[C@@H](C(=O)N2CCCC2)C1
Outgoing: c3

Incoming: Cool, now O=C(O)CCc1c[nH]c2ccccc12
Outgoing: c1

Incoming: Cool, now CC1C=CC=CC=CC=CC=CC=CC=CC(OC2OC(C)C(O)C(N)C2O)CC2O[C@@](O)(CC(O)CC(O)C(O)CCC(O)CC(O)CC(=O)OC(C)C(C)C1O)CC(O)C2C(=O)O (some centres undefined)
Outgoing: c3

Incoming: Cool, now CC(C)N1C(=O)N(C)C2(CCN(Cc3ccc4c(c3)Cc3ccccc3-4)CC2)C1=O
Outgoing: c1

Incoming: Cool, now Cc1sc2ncnc(-c3cccc4cccnc34)c2c1C
Outgoing: c1

Incoming: Cool, now C[C@@]12CC[C@H]3c4ccc(O)cc4CC(CCCCCCCCCS(=O)CCCC(F)(F)C(F)(F)F)[C@H]3[C@@H]1CCC2O (some centres undefined)
Outgoing: c3

Incoming: Cool, now CC(C)n1cc(-c2cc(C(=O)N(C)Cc3cccnc3)c3ccc(F)cc3n2)cn1
Outgoing: c3

---

# measurement_description: viability loss with induced miR-34 in A549 – imaging, A549 dox-inducible miR-34, nuclei and caspase counts, primary screen (AID 1347080)
# test_settings: A549 miR-34 inducible, Hoechst nuclei count, 48 h; stronger effect = lower value; cell number ratio, induced over uninduced
parameter: fold change
Keep the answer to the number alone.

Worked examples follow.
compound	endpoint_result
c1ccc2c(c1)CCCc1cc(NCCN3CCOCC3)nnc1-2	0.801
Nc1nc2ccccc2c(=O)[nH]1	0.901
O=C(C=CC=Cc1ccc2c(c1)OCO2)N1CCCCC1	1

Incoming: Could you share which fold change value was measured for CC(=O)OC1CC2CCC3C(CCC4(C)C3CC([N+]3(C)CCCCC3)C4OC(C)=O)C2(C)CC1[N+]1(C)CCCCC1 (stereo not given) ?
Outgoing: 0.885

Incoming: Cool, now CC1(C)O[C@@H]2C[C@H]3[C@@H]4CCC5=CC(=O)C=C[C@]5(C)[C@@H]4C(O)C[C@]3(C)[C@@]2(C(=O)CO)O1 (stereo not given in full)
Outgoing: 0.87

---

# measurement_description: viability loss with induced miR-34 in A549 – imaging, A549 dox-inducible miR-34, nuclei and caspase counts, primary screen (AID 1347080)
# test_settings: A549 miR-34 inducible, Hoechst nuclei count, 48 h; measured here: total cells without miR-34 induction
Exam item: assign True to entries whose cell count is below 8000 and False to entries at or above 8000. Note that a value of exactly 8000 receives False.

Worked examples, 8 compounds total:
compound	assigned_category
C=C1c2c(Cl)ccc(O)c2C(O)=C2C(=O)[C@]3(O)C(O)=C(C(N)=O)C(=O)[C@@H](N(C)C)[C@@H]3[C@@H](O)C12 (stereo partly specified)	False
CCc1c(Cl)c(O)c(Cl)c(O)c1C(=O)OC1C(C)OC(OCC2=CC=CCC(O)C(C)=CC(CC)C(O[C@@H]3OC(C)(C)C(OC(=O)C(C)C)C(O)C3O)C(C)=CC(C)=CC[C@H](C(C)O)OC2=O)C(OC)C1O (stereo partly specified)	False
CCC(C)C(=O)OC1CCC=C2C=CC(C)C(CCC3CC(O)CC(=O)O3)[C@H]21 (stereo partly specified)	True
COCCOC(=O)C1=C(C)NC(C)=C(C(=O)OCC=Cc2ccccc2)C1c1cccc([N+](=O)[O-])c1 (stereo unspecified)	True
CC1CN(c2c(F)c(N)c3c(=O)c(C(=O)O)cn(C4CC4)c3c2F)CC(C)N1 (stereo unspecified)	False
COc1c2ccoc2nc2c(OC)c(OC[C@@H](O)C(C)(C)O)ccc12	False
N[C@@H](Cc1ccc(F)cc1)C(=O)O	False
O=C(NCCO)c1cccc(-c2cc(Nc3ccc(OC(F)(F)F)cc3)ncn2)c1	False

Incoming: State whether 8000 exceeds cell count recorded for CNC(=O)C(Cc1c[nH]c2ccccc12)NC(=O)C(CC(=O)NO)CC(C)C (stereo unspecified) .
Outgoing: False

Incoming: Cool, now Nc1ccccc1NC(=O)CCCCCCC(=O)Nc1ccccc1
Outgoing: True

Incoming: Cool, now CO[C@H]1CC(O[C@@H]2/C(C)=C/C[C@@H]3C[C@@H](C[C@]4(CC[C@H](C)[C@@H](C5CCCCC5)O4)O3)OC(=O)[C@@H]3C=C(C)/C(=N/O)[C@H]4OC/C(=C\C=C\[C@@H]2C)[C@]43O)O[C@@H](C)C1O (stereo partly specified)
Outgoing: False

Incoming: Cool, now CCOC(=O)C(CCc1ccccc1)NC(C)C(=O)N1C(=O)N(C)CC1C(=O)O (stereo unspecified)
Outgoing: False

---

Overview of reported viability across a group of molecules:
# measurement_description: drug combination growth inhibition, ovarian cancer – cell-based, oncology-focused library, rucaparib conditional, profiling panel (AID 1508598)
# test_settings: patient-derived ovarian cancer cells, CellTiter-Glo viability, 144 h; at 0.313 µM; OCI-P5x cells; with rucaparib 20 µM; stronger effect = lower value; 100% = cells with rucaparib alone
Give your result in % as a bare value.

Worked examples follow.
molecule	endpoint_result
CC(=O)O[C@@]1(C(C)=O)CC[C@H]2[C@@H]3C[C@H](C)C4=CC(=O)CC[C@]4(C)[C@@H]3CC[C@@]21C	102
Nc1nonc1C(=Nc1ccc(F)c(Cl)c1)NO	99.5
CC(C)C[C@H](NP(=O)(O)O[C@@H]1O[C@@H](C)[C@H](O)[C@@H](O)[C@H]1O)C(=O)N[C@@H](Cc1c[nH]c2ccccc12)C(=O)O	98.1
CN(C)CCOc1ccc(-c2nc(-c3ccc4c(c3)CCC4=NO)c(-c3ccncc3)[nH]2)cc1	85.3
CO[C@H]1/C=C\C=C(\C)C(=O)NC2=CC(=O)C(NCCN(C)C)=C(C[C@@H](C)C[C@H](OC)[C@H](O)[C@@H](C)/C=C(\C)[C@@H]1OC(N)=O)C2=O	7.13
CCC1=CC2CN(C1)Cc1c([nH]c3ccccc13)[C@@](C(=O)OC)(c1cc3c(cc1OC)N(C)[C@H]1[C@@](O)(C(=O)OC)[C@H](OC(C)=O)[C@]4(CC)C=CCN5CC[C@@]31[C@H]54)C2 (some centres not stated)	46.6

// next entry
Incoming: Could you share which viability value was measured for COc1cc(Br)c(Nc2nc(-c3c(C)nc4ncccn34)cs2)c(Br)c1 ?
Outgoing: 100

---

# measurement_description: MELAS cybrid and Rieske KO viability enhancers – cell-based, MELAS cybrids, Rieske KO mouse fibroblasts, CellTiter-Glo, primary screen (AID 1508586);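 also: z relative to plate mean and SD of compound and empty wells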
# test_settings: MELAS cybrid survival, low glucose, CellTiter-Glo 48 h; stronger effect = higher value
parameter: z-score
Keep the answer to the number alone.

Incoming: Could you share which z-score value was measured for Cc1cc(C=Cc2ccc3cc(N(C)C)ccc3[n+]2C)c(C)n1-c1ccccc1 ?
Outgoing: 0.882

---

# measurement_description: galactose survival enhancers in mitochondrial complex I cybrids – cell-based, galactose medium, ATP luminescence, primary screen (AID 1645843);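 also: positive z means more ATP and so rescue of galactose-driven cybrid death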
# test_settings: complex I mutant cybrid cells, 72 h
Active and inactive are the calls of the source.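 Rule for the calls: active = z-score of at least 1.8 in each of two replicates, scored against plate mean and spread of sample wells; inactive = the rest.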
Would you mind answering with one of these outcomes? yes = active, no = inactive

Worked examples, 5 molecules total:
molecule	assigned_category
Cc1ccc(NC(=O)c2ccc3nccnc3c2)cn1	no
CN(C)C(=O)c1cccnc1-c1ccc2ncccc2c1	no
CCn1ccnc1CN(C)C(=O)c1cc(-c2cnc(N)nc2)nc2c(C)cccc12	no
CN(CC1Cc2ccccc2O1)C(=O)Nc1nc(-c2ccccc2)ns1 (stereo unspecified)	no
CC(C)Oc1cccc(C(=O)N2CCC(n3cc(C(C)(C)O)nn3)CC2)c1	no

Incoming: Recorded call for O=C1CC(C(=O)N2CCc3sccc3C2)c2cc(F)ccc2N1 (stereo unspecified) ?
Outgoing: yes

Incoming: Cool, now Cc1cc(CN[C@@H](C)C(N)=O)c(C)s1
Outgoing: no

Incoming: Cool, now NC(Cc1cccc(-c2ccccc2CP(=O)(O)O)c1)C(=O)O (stereo unspecified)
Outgoing: no

Incoming: Cool, now CC(C)CNC(=O)[C@@H]1C[C@H](CN2CCOCC2)CN(Cc2ccncc2)C1
Outgoing: no

Incoming: Cool, now C#CCn1c(=O)c2c(ncn2C)n(C)c1=O
Outgoing: no

Incoming: Cool, now Cc1ccc2c(-c3cc4c(n(CC5CC5)c3=O)CCN(C(=O)c3ccc5c(c3)OCO5)C4)cccc2n1
Outgoing: no

Incoming: Cool, now COC(=O)c1nn(CC(=O)Nc2cnn(C)n2)c2ccccc12
Outgoing: no

Incoming: Cool, now C[C@@H]1CCC[C@H](C)N1NC(=O)c1ccc(Cl)c(S(N)(=O)=O)c1
Outgoing: no

Incoming: Cool, now CC(C)CC(NC(=O)C(COC(C)(C)C)NC(=O)C(Cc1ccc(O)cc1)NC(=O)C(CO)NC(=O)C(Cc1c[nH]c2ccccc12)NC(=O)C(Cc1cnc[nH]1)NC(=O)C1CCC(=O)N1)C(=O)NC(CCCN=C(N)N)C(=O)N1CCCC1C(=O)NNC(N)=O (stereo unspecified)
Outgoing: no

Incoming: Cool, now C=CCn1cc(-c2nc3c([nH]2)c(-c2cccnc2)nn3C)c(C)n1
Outgoing: no

Incoming: Cool, now Cc1ccc(C(=O)N2CCC(Cc3ccccc3)CC2)cc1
Outgoing: no

Incoming: Cool, now Cc1ccc2c(c1)N(Cc1nc(C(C)(C)C)no1)C(=O)CO2
Outgoing: no

Incoming: Cool, now Cc1sc2ncnc(-c3cccc4cccnc34)c2c1C
Outgoing: no

Incoming: Cool, now CN1CCCC1CCNC(=O)[C@H]1CNC[C@@H](COc2cccc(F)c2)C1 (stereo partly specified)
Outgoing: no

Incoming: Cool, now CC(C)(N)c1cn(C2CCN(c3nc(N)nc4nc[nH]c34)CC2)nn1
Outgoing: no

Incoming: Cool, now Cc1cc(C(=O)N2CCCC(C)C2)c2ccc(C)c(C)c2n1 (stereo unspecified)
Outgoing: no
